Known Stability of a selection of compounds
# Tested on: Liver microsomes
# assayContext: human, 10 min, 300 µM
# Description: Metabolic stability of the compound in human liver microsomes assessed as stability rate per mg of protein at 300 uM after 10 mins by LC-MS/MS analysis in presence of NADPH
measuredQuantity: Stability (nmol/min)

N#Cc1c(=O)[nH]c(SCc2ccccc2Cl)c2ccc(F)cc12 = 0.12
Oc1cc2c(c(SCc3ccccc3Cl)n1)CCCC2 = 0.27
N#Cc1c(=O)[nH]c(SCc2ccccc2Cl)c2c(F)cccc12 = 0.12
N#Cc1c(O)nc(SCC2CCC2)c2c1CCCC2 = 0
N#Cc1c(O)nc(SCc2ccccc2Cl)c2c1CCOC2 = 0.12
N#Cc1c(O)nc(SCc2ccccc2Cl)c2c1CCCC2 = 0.09

---

# protocolSummary: Tmax in Balb/C mouse at 10 umol/kg, po
# Assay type: ADME, organism-based
# assayContext: in vivo
As shown below, each of these molecules has a reported Tmax value.
measuredQuantity: Tmax (h)

N#Cc1ncccc1CSc1nc(O)c(C#N)c2c1COCC2 = 4
N#Cc1c(O)nc(SCc2ccccc2Cl)nc1-c1ccccc1 = 1
N#Cc1c(=O)[nH]c(OCc2ccccc2Cl)c2cc(F)ccc12 = 4
N#Cc1c(O)nc(SCc2ccccc2Cl)c2cc(F)ccc12 = 4
N#Cc1c(O)nc(SCc2ccccc2Cl)c2c1CCCC2 = 1
